Each recorded value in this set is attributed to ChEMBL document CHEMBL1135783.

- target of assay: Metabotropic glutamate receptor 5 (Rattus norvegicus)
- Sequence (P31424 whole entry): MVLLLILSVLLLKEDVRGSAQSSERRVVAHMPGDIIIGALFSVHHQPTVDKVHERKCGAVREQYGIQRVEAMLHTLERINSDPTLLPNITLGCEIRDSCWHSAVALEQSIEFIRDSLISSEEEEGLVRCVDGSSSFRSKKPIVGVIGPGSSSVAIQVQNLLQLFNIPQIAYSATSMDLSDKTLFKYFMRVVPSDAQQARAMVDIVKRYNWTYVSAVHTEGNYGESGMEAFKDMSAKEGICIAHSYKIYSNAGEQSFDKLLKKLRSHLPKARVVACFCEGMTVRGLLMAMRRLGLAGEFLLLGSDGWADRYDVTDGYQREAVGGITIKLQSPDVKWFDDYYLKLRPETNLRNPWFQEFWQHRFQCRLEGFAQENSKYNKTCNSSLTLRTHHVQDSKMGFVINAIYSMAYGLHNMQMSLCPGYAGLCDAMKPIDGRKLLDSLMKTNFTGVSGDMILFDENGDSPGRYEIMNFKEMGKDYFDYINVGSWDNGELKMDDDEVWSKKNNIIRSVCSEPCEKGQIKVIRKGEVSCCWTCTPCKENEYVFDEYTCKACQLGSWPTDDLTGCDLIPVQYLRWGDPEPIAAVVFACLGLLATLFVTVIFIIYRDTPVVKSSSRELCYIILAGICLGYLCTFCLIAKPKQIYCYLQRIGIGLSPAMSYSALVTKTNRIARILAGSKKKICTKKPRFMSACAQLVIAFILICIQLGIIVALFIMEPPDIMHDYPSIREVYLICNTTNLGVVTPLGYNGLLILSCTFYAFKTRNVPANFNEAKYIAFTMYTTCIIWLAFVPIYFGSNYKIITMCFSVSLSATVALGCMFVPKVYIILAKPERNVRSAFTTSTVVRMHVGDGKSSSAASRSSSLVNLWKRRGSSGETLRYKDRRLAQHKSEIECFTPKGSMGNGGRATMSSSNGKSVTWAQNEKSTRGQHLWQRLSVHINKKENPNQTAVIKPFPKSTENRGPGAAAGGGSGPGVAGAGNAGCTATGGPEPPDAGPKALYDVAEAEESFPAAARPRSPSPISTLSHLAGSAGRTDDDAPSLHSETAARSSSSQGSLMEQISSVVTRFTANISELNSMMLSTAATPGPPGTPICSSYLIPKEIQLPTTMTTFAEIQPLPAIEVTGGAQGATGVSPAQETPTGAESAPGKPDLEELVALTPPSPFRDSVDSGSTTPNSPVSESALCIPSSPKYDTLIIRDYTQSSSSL
- test name: Compound was evaluated for the inhibitory activity against cloned Metabotropic glutamate receptor 5
measured parameter: EC50 (µM)
Value expressed in µM; do not type the unit.

EC50 on Metabotropic glutamate receptor 5 (Rattus norvegicus) for `N[C@@H](CCc1nsnc1O)C(=O)O` is 190

EC50 on Metabotropic glutamate receptor 5 (Rattus norvegicus) for `N[C@@H](Cc1cc(=O)[nH]o1)C(=O)O` is 490

====

Assignment: determine reported EC50 for the given compounds.
- target of assay: Metabotropic glutamate receptor 1 (Rattus norvegicus, UniProt P23385)
- Sequence (P23385 whole entry): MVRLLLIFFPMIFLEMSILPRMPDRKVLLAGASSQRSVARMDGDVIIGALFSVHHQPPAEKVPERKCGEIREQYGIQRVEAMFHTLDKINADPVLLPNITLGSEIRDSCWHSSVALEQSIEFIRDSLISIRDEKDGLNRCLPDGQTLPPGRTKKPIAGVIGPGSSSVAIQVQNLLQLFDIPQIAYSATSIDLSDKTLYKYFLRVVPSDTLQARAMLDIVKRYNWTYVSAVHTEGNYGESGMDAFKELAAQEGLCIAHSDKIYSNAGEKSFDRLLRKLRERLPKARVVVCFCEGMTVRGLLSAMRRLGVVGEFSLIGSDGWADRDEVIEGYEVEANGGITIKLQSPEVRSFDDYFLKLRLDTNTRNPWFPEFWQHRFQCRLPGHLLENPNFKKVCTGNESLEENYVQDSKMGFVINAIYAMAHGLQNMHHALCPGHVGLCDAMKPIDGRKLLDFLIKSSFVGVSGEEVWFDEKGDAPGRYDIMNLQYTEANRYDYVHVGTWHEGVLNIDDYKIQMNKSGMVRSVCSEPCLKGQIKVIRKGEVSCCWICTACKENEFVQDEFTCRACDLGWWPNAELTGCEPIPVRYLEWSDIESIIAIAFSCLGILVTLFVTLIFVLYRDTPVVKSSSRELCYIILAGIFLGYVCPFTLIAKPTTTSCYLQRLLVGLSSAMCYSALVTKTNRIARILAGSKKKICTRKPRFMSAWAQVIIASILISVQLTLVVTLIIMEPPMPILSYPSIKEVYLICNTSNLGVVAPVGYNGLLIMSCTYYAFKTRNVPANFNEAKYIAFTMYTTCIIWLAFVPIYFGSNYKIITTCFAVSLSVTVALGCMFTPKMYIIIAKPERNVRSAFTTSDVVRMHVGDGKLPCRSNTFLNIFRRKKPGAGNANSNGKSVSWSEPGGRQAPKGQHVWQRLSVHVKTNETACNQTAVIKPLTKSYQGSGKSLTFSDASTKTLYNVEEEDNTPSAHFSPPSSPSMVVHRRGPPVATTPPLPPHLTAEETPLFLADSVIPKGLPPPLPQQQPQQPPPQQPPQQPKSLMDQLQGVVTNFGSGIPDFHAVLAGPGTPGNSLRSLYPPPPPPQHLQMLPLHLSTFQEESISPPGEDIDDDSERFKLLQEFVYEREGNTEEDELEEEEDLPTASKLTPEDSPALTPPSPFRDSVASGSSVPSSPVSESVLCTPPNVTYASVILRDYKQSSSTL
- test name: Compound was evaluated for the inhibitory activity against cloned Metabotropic glutamate receptor 1

// EC50 lookup, compound = `N[C@@H](CCc1nsnc1O)C(=O)O` , result: > 1000 µM

// EC50 lookup, compound = `N[C@H](Cc1cc(=O)[nH]o1)C(=O)O` , result: > 1000 µM

// EC50 lookup, compound = `N[C@H](CCc1nsnc1O)C(=O)O` , result: > 1000 µM

// EC50 lookup, compound = `N[C@@H](Cc1cc(=O)[nH]o1)C(=O)O` , result: 250 µM
